Entry source: patent US12421220B2

# Target Entity: CRBN-DDB1 (CRBN_DDB1.7) (Homo sapiens)
# Sequence (Q96SW2 81-442 limits assumed): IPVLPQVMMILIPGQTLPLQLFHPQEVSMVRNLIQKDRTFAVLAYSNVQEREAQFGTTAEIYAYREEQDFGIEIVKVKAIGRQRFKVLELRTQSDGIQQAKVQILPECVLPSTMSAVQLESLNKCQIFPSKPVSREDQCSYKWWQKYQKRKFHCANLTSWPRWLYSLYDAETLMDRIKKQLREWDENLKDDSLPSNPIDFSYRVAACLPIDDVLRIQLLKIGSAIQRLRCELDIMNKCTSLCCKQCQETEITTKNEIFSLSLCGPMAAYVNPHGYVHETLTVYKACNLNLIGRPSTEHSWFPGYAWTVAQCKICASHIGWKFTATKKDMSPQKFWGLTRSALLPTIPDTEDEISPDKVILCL
# Assay Procedure: Fluorescence polarization (FP) binding assay, CRBN_DDB1.7 construct
# Condition: 0.05% PA, 0.1% BSA; indoline binders; read-out: FP CRBN_DDB1.7 0.05% PA, 0.1% BSA ka nM
// values below are reported Kd

Past entries and their recorded results:
{"Compound": "CC(C)(C)OC(=O)N1CCC(c2cccc3c2CCN3[C@@H]2CCC(=O)NC2=O)CC1 (single isomer, unassigned) [Compound 41-4]", "Kd": "< 100000 nM"}
{"Compound": "O=C1CCC(N2CCc3c(N4CCNCC4)cccc32)C(=O)N1 (centres unmarked) [Compound 37-4]", "Kd": "< 100000 nM"}
{"Compound": "CN(C(=O)OC(C)(C)C)C1CCN(c2c(F)ccc3c2CCN3[C@H]2CCC(=O)NC2=O)CC1 (single isomer, unassigned) [Compound 44-8]", "Kd": "< 100000 nM"}
{"Compound": "CC(C)(C)OC(=O)N1CCC(c2cccc3c2CCN3[C@H]2CCC(=O)NC2=O)CC1 (single isomer, unassigned) [Compound 41-5]", "Kd": "< 1000 nM"}
{"Compound": "CC(C)(C)OC(=O)N1CCC(c2ccc3c(c2F)CCN3[C@@H]2CCC(=O)NC2=O)CC1 (single isomer, unassigned) [Compound 47-7]", "Kd": "< 100000 nM"}

Prompt line: Return reported Kd. Input compound: O=C1CC[C@H](N2CCc3c(N4CCC(CCO)CC4)cccc32)C(=O)N1 (single isomer, unassigned) [Compound 42-5]
Response line: < 100000 nM

Prompt line: Return reported Kd. Input compound: O=C1CC[C@H](N2CCc3c(N4CCC(O)CC4)cccc32)C(=O)N1 (single isomer, unassigned) [Compound 43-5]
Response line: < 100000 nM

Prompt line: Return reported Kd. Input compound: CN(C(=O)OC(C)(C)C)C1CCN(c2cccc3c2CCN3C2CCC(=O)NC2=O)CC1 (racemic) [Compound 34-5]
Response line: < 100000 nM
